# target desc: N-terminal HiBiT tagged BCL6 (Homo sapiens, UniProt P41182)
# Construct: expressed in transfected cells; host or cells: HT1080 (ATCC CCL-121), stably transduced with lentivirus pLV-UBC-N-HiBiT-BCL6-PGK-puro
# experiment: HiBiT based degradation assay
# Assay type: cell-based
# test settings: HT1080 cells expressing N-terminal HiBiT tagged BCL6; 5 hours of incubation; four-parameter logistic model; read-out: EC50 (5 hr)
Overview of recorded DC50 for various molecules

molecule | DC50
CNC(=O)COc1cc2cc(Nc3nc(N4CC5(CC(Oc6ccc7c(C8CCC(=O)NC8=O)nn(C)c7c6)C5)C4)ncc3Cl)cnc2n(C(C)C)c1=O (centres unmarked) | < 10 nM
CNC(=O)COc1cc2cc(Nc3nc(N4CC5(CC[C@H](Nc6cccc7c(C8CCC(=O)NC8=O)nn(C)c67)[C@H](C)C5)C4)ncc3Cl)cnc2n(C)c1=O (relative stereo) [Compound 159a] | < 10 nM
CNC(=O)COc1cc2cc(Nc3nc(N4CCN(CC5CCN(c6cccc7c(C8CCC(=O)NC8=O)nn(C)c67)CC5)[C@@H](C(F)(F)F)C4)ncc3Cl)cnc2n(C)c1=O (some centres unmarked) [Compound 141a] | 10 to 100 nM
CNC(=O)COc1cc2cc(Nc3nc(N4CCC(CN5[C@@H](C)CN(c6cccc7c(C8CCC(=O)NC8=O)nn(C)c67)C[C@@H]5C)CC4)ncc3Cl)cnc2n(C(C)C)c1=O (some centres unmarked) [Compound 197b] | 10 to 100 nM
CNC(=O)COc1cc2cc(Nc3nc(N4CC5(CC(N(C)c6ccc7c(C8CCC(=O)NC8=O)nn(C)c7c6)C5)C4)ncc3Cl)cnc2n(C(C)C)c1=O (centres unmarked) | < 10 nM
CNC(=O)COc1cc2cc(Nc3nc(N4CC[C@@H](CN5CCN(c6cccc7c(C8CCC(=O)NC8=O)nn(C)c67)CC5)[C@@H](C)C4)ncc3Cl)cnc2n(C(C)C)c1=O (some centres unmarked) [Compound 177b] | 10 to 100 nM
CNC(=O)COc1cc2cc(Nc3cc(N4CCN(CC5CCN(c6cccc7c(C8CCC(=O)NC8=O)nn(C)c67)CC5)[C@H](CO)C4)ncc3Cl)cnc2n(C(C)C)c1=O (some centres unmarked) [Compound 233a] | 10 to 100 nM
CNC(=O)COc1cc2cc(Nc3nc(N4CC5(CC[C@H](Nc6ccc7c(C8CCC(=O)NC8=O)nn(C)c7c6)[C@H](C)C5)C4)ncc3Cl)cnc2n(C)c1=O (relative stereo) [Compound 156b] | < 10 nM
CNC(=O)COc1cc2cc(Nc3nc(N4CCN(CC5CCN(c6ccc7c(C8CCC(=O)NC8=O)nn(C)c7c6)CC5)CC4)ncc3Cl)cnc2n(C(C)C)c1=O (centres unmarked) | < 10 nM
CNC(=O)COc1cc2cc(Nc3nc(N4CCC(CN5CCN(c6cccc7c(C8CCC(=O)NC8=O)nn(C)c67)C[C@H]5CO)CC4)ncc3Cl)cnc2n(C(C)C)c1=O (some centres unmarked) [Compound 231a] | 10 to 100 nM
CNC(=O)COc1cc2cc(Nc3nc(N4CCN(CC5CCN(c6ccc7c(C8CCC(=O)NC8=O)nn(C)c7c6)CC5)[C@@H](CO)C4)ncc3Cl)cnc2n(C(C)C)c1=O (some centres unmarked) [Compound 153a] | < 10 nM
